Dear all, this message contains Ki results, target or system 5-hydroxytryptamine receptor 2A (Homo sapiens, UniProt P28223).
VALUE TYPE: Ki

CCc1nc2c(N3CCNCC3)nccc2n1S(=O)(=O)c1cccc(Cl)c1 = 562 nM
O=S(=O)(c1cccc(Cl)c1)n1cnc2c(N3CCNCC3)nccc21 = 355 nM
O=S(=O)(c1cccc(Cl)c1)n1c(-c2ccccc2)nc2c(N3CCNCC3)nccc21 = 410 nM
CC(C)c1nc2c(N3CCNCC3)nccc2n1S(=O)(=O)c1cccc(Cl)c1 = 239 nM
CCc1nc2c(N3CCNCC3)nccc2n1S(=O)(=O)c1cccc(F)c1 = 264 nM

* * *

Dear all, this message contains Ki results, target or system 5-hydroxytryptamine receptor 1A (Homo sapiens, UniProt P08908).
VALUE TYPE: Ki (nM)

O=S(=O)(c1cccc(Cl)c1)n1cnc2c(N3CCNCC3)nccc21 = 285
CCc1nc2c(N3CCNCC3)nccc2n1S(=O)(=O)c1cccc(F)c1 = 829
CCc1nc2c(N3CCNCC3)nccc2n1S(=O)(=O)c1cccc(Cl)c1 = 146
O=S(=O)(c1cccc(Cl)c1)n1c(-c2ccccc2)nc2c(N3CCNCC3)nccc21 = 1090
CC(C)c1nc2c(N3CCNCC3)nccc2n1S(=O)(=O)c1cccc(Cl)c1 = 307

* * *

# TARGET OR SYSTEM: muscarinic acetylcholine receptor M1 (Homo sapiens)
# Sequence (P11229 whole entry): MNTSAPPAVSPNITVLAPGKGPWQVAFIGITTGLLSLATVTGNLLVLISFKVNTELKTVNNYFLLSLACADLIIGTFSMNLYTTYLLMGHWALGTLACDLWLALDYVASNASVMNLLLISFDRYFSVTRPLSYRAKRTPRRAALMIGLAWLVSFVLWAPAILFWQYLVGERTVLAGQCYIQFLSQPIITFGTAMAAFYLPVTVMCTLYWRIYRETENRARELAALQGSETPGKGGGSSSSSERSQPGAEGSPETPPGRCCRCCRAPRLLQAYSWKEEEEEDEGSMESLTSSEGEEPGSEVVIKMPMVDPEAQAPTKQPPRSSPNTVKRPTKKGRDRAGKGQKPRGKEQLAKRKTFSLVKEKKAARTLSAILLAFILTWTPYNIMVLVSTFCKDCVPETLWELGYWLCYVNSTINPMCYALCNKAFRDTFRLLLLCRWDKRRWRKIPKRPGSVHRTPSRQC
# PROTOCOL: Inhibition of human muscarinic receptor 1 at 1 uM relative to control
VALUE TYPE: inhibition at 1 µM (%)

CCc1nc2c(N3CCNCC3)nccc2n1S(=O)(=O)c1cccc(Cl)c1 = 4

* * *

# TARGET OR SYSTEM: hERG (KCNH2) (Homo sapiens, UniProt Q12809)
# Sequence (Q12809 whole entry): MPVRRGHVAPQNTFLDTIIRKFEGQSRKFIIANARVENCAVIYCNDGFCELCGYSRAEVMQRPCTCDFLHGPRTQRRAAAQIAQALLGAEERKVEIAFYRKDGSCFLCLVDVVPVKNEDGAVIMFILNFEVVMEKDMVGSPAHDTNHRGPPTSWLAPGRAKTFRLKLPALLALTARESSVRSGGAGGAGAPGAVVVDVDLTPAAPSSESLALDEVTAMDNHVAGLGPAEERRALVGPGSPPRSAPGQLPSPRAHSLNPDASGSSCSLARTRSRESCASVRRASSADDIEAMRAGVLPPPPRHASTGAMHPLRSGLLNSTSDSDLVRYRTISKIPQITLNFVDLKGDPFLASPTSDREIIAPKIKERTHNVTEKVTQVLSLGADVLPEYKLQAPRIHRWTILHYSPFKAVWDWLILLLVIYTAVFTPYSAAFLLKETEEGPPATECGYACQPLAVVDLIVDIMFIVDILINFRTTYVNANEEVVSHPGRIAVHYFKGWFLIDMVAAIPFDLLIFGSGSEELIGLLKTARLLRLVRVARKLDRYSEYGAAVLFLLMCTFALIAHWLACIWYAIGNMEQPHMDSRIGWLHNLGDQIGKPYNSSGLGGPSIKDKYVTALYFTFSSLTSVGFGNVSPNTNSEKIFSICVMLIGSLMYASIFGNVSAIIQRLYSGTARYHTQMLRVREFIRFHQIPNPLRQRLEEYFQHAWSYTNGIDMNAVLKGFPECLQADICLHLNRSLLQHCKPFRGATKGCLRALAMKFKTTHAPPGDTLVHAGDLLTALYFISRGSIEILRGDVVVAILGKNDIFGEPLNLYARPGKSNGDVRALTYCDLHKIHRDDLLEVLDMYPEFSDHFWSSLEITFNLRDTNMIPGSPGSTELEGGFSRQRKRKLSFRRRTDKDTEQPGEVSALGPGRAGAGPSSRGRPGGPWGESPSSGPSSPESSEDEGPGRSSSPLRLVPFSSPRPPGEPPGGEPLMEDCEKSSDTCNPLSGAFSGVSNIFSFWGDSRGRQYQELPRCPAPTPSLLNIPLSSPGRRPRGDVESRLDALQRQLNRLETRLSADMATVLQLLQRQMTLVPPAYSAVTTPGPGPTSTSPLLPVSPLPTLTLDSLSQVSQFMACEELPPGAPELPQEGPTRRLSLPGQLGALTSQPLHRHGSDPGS
# PROTOCOL: Inhibition of human ERG at 1 uM relative to control
VALUE TYPE: inhibition at 1 µM

CCc1nc2c(N3CCNCC3)nccc2n1S(=O)(=O)c1cccc(Cl)c1 = 12%

* * *

# TARGET OR SYSTEM: alpha-1A adrenergic receptor (Homo sapiens, UniProt P35348)
# Sequence (P35348 whole entry): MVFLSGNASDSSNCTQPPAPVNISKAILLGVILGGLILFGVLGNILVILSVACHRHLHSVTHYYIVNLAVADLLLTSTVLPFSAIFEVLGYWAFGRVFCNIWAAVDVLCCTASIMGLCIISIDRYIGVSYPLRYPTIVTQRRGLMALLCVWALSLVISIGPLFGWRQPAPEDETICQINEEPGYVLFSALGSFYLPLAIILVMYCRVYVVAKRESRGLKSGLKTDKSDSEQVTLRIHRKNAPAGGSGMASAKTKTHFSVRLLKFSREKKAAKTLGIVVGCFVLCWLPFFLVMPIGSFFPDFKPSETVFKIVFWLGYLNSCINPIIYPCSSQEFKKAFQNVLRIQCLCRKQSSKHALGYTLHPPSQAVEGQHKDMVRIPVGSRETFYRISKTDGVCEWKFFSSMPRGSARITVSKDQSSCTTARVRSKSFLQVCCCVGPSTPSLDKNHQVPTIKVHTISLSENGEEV
# PROTOCOL: Inhibition of human alpha1A adrenergic receptor at 1 uM relative to control
VALUE TYPE: inhibition at 1 µM (%)

CCc1nc2c(N3CCNCC3)nccc2n1S(=O)(=O)c1cccc(Cl)c1 = 22
